B1: mRNA-splicing (parent)
chain: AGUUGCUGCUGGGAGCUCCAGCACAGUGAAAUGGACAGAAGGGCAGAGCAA

Variants of: B1
Experiment: exon inclusion enrichment index; higher = more inclusion; WT1 exon 5 minigene, HEK293
recorded_endpoint: exon inclusion enrichment index
Numbers only.

These recorded examples may help you get a feel for the data.
• G5C U7G G8A U10A = 0.113
• G5C C6A U7C G8A U10A G21C C22U = 0.105
• G11U G12U = 0.755
• G5A U7C G8A U10C C22U = 2.11
• G2A = 0.419

Look up exon inclusion enrichment index for the entries below, preserving their order.
1. C16U
2. G5C C6U G8C C9U U10C G12U G13A
3. G5A C6G U7G C9A G38A A39U
4. G5C C6G U7C U10C A31G U32C
5. C6A U7C C9A U10C U27C G28U
6. G5C C6U G8C C9U U10C A35G C36A
7. U3C U4G G5A C6G U7G C9A

1: 0.0903; 2: 0.153; 3: 0.00074; 4: 4.5; 5: 2.92; 6: 1.07; 7: 0.106
